- EXPERIMENTAL SYSTEM: HKU1 FP peptide (HKU1)
- EXPERIMENT SUMMARY: peptide ELISA
PROPERTY LABEL: EC50
Field note: include the unit after the figure.

BINDER	EC50
fp.001 (antibody, V domains shown) VH: VQLVESGGGVVQPGRPLRLSCSGSGFIFSNYAMHWVRQAPGKGLEWVAIISFDARNKRYADSVEGRFTISRDNSKNILYLQMNSLRLEDSAVYFCARDLFLSDYDNGVYDPTRGGFDYWGQGTLVTVSS VL: EIVMTQSPATLSLSPGERATLSCRASQSVNNRLAWYQQKLGQPPRLLISGASTRATGIPARFTGSGSGTEFTLTISSLQSEDFAVYYCQQYHDWPLLSFGGGTKVEIK	0.0298 µg/mL
fp.011 (antibody, V domains shown) VH: EVQLLESGGGLVQPGGSLRLSCAGSGFTFNNYAMTWVRQAPGRGLEWVSAISGSGGSSHYADSVKGRFTITRDNSKNTLYLQMNSLRAEDTAVYYCAFIDYYSGWSYYYGLDVWGQGTTVTVSS VL: EIVLTQSPATLSLSPGERATLSCRASQGVRTYVAWYQQKPGQAPRLLIYDASNRATGIPARFSGSGSGTDFTLTISSLEPEDFAVYYCQQRYNWPLCSFGQGTKLEIK	0.0197 µg/mL

Hello, I would appreciate it if you could give EC50 for each entry below.
1. fp.006 (antibody, V domains shown) VH: VQLVESGGGVVQPGGSLRLSCAASGFNFNNYALHWVRQAPGKGLEWVAIISYEARNKKYGVSVMGRFSISRDNSKSIMYLEMNSLRVEDTGVYYCARDLFLSDYDRSGYDPTRGGFDHWGQGTLVTVSS VL: EIVMTQSPATLSVSPGERATLSCRASQSVSSSLAWYQHRFGQAPRLLISGASTRATGIPGRFSGSGSGTEFTLTISSLQSEDVAVYYCQQYGDWPLVTFGGGTKVEIK
2. fp.004 (antibody, V domains shown) VH: VQLVESGGGVVQPGTSLRLSCVASGFTFSNYAMHWVRQAPGKGLEWVAIISFDTRNTASAASVKGRFNISRDNSKNSLYLQMNSLRPEDTGVYYCARDLFLSDYDSRGYDPITGGFDCWGQGTLVTVSS VL: EIVMTQSPAALSVSPGEGATLSCRASQSVGSRLAWYQQKLGRPPRLLIYGASTRATGIPARFSGSGSGTEFTLTISSLQSEDFAVYYCQQYNDWPLLTFGGGTKVKIK
3. fp.009 (antibody, V domains shown) VH: VQLVESGGGVVQPGTSLTLSCEASGFTFSNYAMHWVRQAPGKGLEWVAIISFDTRNKKFAGSVQGRFSISRDNAKNSIYLQMNNLRPEDTGIYYCARDVFLSDYDSRGFDRTRGGFDYWGQGTLVTVSS VL: EIVMTQSPATLSVSPGEKATLSCRASESVGSSLAWYQQKLGQAPRLLIYGASTRATGIPARFSGSGSGAEFTLTISSLQSEDFAIYYCQQYGDWPLLTFGGGTKVEIK

Reply text:
1. 0.0168 µg/mL
2. 0.0272 µg/mL
3. 0.0241 µg/mL
